- Tested on: K4 kissing-loop RNA reporter
- protocol_description: apparent KD of K4 kissing-loop reporter; higher = weaker reporter binding
- test_context: Eterna round: R107; input ligand: FMN 200 uM
apparent KD of K4 kissing-loop reporter vs 200 nM: at or above is class 1, below is class 0.

Example entries and their recorded answers appear below.
QUERY: // inclusive: apparent KD of K4 kissing-loop reporter at least 200 nM? input: UCCUGCAAUCGACCACGAAAGUGGUUCGAUACCAGAGUCGAAAGACUCCCUUGGCAGCGAGUGAUGUUCGAGCAGGUAAAAUAAA
RESULT: class 1

QUERY: // inclusive: apparent KD of K4 kissing-loop reporter at least 200 nM? input: UGGAGUUGACGAAAAGUCAACUCCUGAGAUCGAGGACCGGUACGGCCGCCACUCGAGCUAACUGCGAGUGAUGUUCGAAAAUAAA [#OpenEnded 1 - Direct theophylline transfer]
RESULT: class 0

QUERY: // inclusive: apparent KD of K4 kissing-loop reporter at least 200 nM? input: GCAUCCAUGGCAGGAUAUAGGUUCGUGGAGUGAUGUUCCAUAGCCCGAGUGAUGUUCGUUAUCCGCCUAGAAGGGCCGUGGAUGC [whbob_Ex_FMNB__2th214]
RESULT: class 1

New cases:
QUERY: // inclusive: apparent KD of K4 kissing-loop reporter at least 200 nM? input: ACUGGAAUUGUACUCCAGUGAUGUUGGAGGCAGGAUAUCCAGUAAAGGAGAAGGGCCAUCGCGCUAUUUAGCCGCAGGCGGCUAA [Atrilazaed]
RESULT: class 1

QUERY: // inclusive: apparent KD of K4 kissing-loop reporter at least 200 nM? input: UUUCGUUUCGUCUGACAUAAUUGGCUAGAAGGAGCGGUAAAAUUACCAGGUAGGUCGCUAGCCCAGUGAUGUUGGGACUAGCGUA [Edries]
RESULT: class 0

QUERY: // inclusive: apparent KD of K4 kissing-loop reporter at least 200 nM? input: GCUAUGGUAGGAAGGAGCGCUACCUUGUUUUUACGAGUGAUGUUCGGAAGCAGGGUGUUAAAGCAGGUAGGUCGCCUACUAUAGC [Arginine B K4 21]
RESULT: class 0

----------
- Test system: K4 kissing-loop RNA reporter;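 also: bound reporter read as fluorescence of individual clusters on recovered sequencing chips by microscopy, with normalized cluster intensities fitted with a binding model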
- protocol_description: apparent KD of K4 kissing-loop reporter; higher = weaker reporter binding
- test_context: Eterna round: R107; input ligand: theophylline 20 uM
property_name: apparent KD of K4 kissing-loop reporter
Write the quantity with the unit trailing the number.

QUERY: Sample UAACUGCAGUGAUGUUGCAGAUGUCCUGACUAGGAUAUCAGGAAACUGAGAAGGAGUCCCUUCUACUGCAACAAGAAGGAGGACA [[K1]-[K2]-[F1]'-[F1]-[F2]-[F2]'-[K]'-[F]''_Design2] — what was its apparent KD of K4 kissing-loop reporter?
RESULT: 391 nM

QUERY: Sample CGCAGUGAUGUUGCGAGUAGCUACAGGGAAGGAGCGUGCUAGAGCACAGGUAGGUCGCCCACUGGGUCAGUGAUGUUGGUCGGGU [Same State Arginine A GF 29] — what was its apparent KD of K4 kissing-loop reporter?
RESULT: 171 nM

QUERY: Sample CGAGUCGGUUCAGAUACCAGCCAAUUAGAGUCGAGUGAUGUUCGACAAUGAACGUCCAAAGGCCCUUGGCAGCUGGAUUGGGAAC [Same State Theophylline B GF 20] — what was its apparent KD of K4 kissing-loop reporter?
RESULT: 112 nM

QUERY: Sample UUAUAAUUCAGUGAUGUUGAAAAUAUAACAGAGGAUAUGCGUUUAAGCAGAAGGCUGAAAUACUAUACUUUAAUCUAUUAAAUUU [JR_SSFMNA_Sub019] — what was its apparent KD of K4 kissing-loop reporter?
RESULT: 332 nM

QUERY: Sample CCAGAAUGAUGAAGAUGAUAAAUUACUGAAGGAGCGCAUAUAGUUGCAGGUAGGUCGCGGUGAAUAAGUAUAGUGAUGUUAUACC [SSArgA.Ac] — what was its apparent KD of K4 kissing-loop reporter?
RESULT: 217 nM

New cases:
QUERY: Sample GGAGAGGUCUUGUUUGGAUGUGAUUAAUGGCGAGGACCGGUACGGCCGCCACUCGGGUGAUGUUAGUGAUGUUGAUGUAGUGAUG [uyumullin] — what was its apparent KD of K4 kissing-loop reporter?
RESULT: 206 nM

QUERY: Sample AGCGGCCAGUCGGCCGCCACUCCAAGCAGUGAUGUUGCUAAGUUUCUACAAGAGUGAUGUUCUUAGAGGACCGGGACUGAUGUGA [Exclusion Tryptophan B Gf 7] — what was its apparent KD of K4 kissing-loop reporter?
RESULT: 241 nM

----------
- System: MS2 coat protein
- protocol_description: apparent KD of MS2 coat protein; designed switch direction (-1 OFF switch, 1 ON switch): -1; higher = weaker reporter binding
- test_context: Eterna round: R95; input ligand: microRNA oligo, concentration not stated
property_name: apparent KD of MS2 coat protein (nM)
// units = nM; emit number, no label

QUERY: Sample AUUAAAACAUAGGAUAUCGAAUUUAUCAUUUAACGAGAAGGAUGAACAUGAGGAUCACCCAUGUGGUAUCAUGG [Mat - Exclusion 6 - JL Mod - D6] (puzzle: Exclusion 6) — what was its apparent KD of MS2 coat protein?
RESULT: 165

QUERY: Sample AAGGAUAGAGGAUAUGCAUAGAUACAGAUUCAUGUAGAACUACAUGAGGAUCACCCAUGUAGAAGGCUAUCCUA [Fiskers Ex 2 - 5] (puzzle: Exclusion 2) — what was its apparent KD of MS2 coat protein?
RESULT: 17.3

QUERY: Sample UAUUACAAGCGAGAUCCUAACAUGAGGAUCACCCAUGUGCUCGUCUCAUAUAGGACUAUCACGAAAGUGAUAGUCCA [Level Boss var2-01] (puzzle: Sensor v3, turn-off variant 1) — what was its apparent KD of MS2 coat protein?
RESULT: 140

Now consider a different sequence.
QUERY: Sample GUUAAACAUGAGGAUCACCCAUGUAAGGAUAUGCUGAGGUAGAGAUGAAGUGAAUGAAGCAGAAGGUACAAAUG [Mat - Mod of JL D64] (puzzle: Exclusion 1) — what was its apparent KD of MS2 coat protein?
RESULT: 83.2

----------
- System: MS2 coat protein
- protocol_description: apparent KD of MS2 coat protein; higher = weaker reporter binding
- test_context: Eterna round: R107; input ligand: arginine 13.2 mM
apparent KD of MS2 coat protein vs 20 nM: at or above is class 1, below is class 0.

QUERY: // inclusive: apparent KD of MS2 coat protein at least 20 nM? input: UACUUGCGGUCGGCCGCCACUACGAGGCAGACCUUCACAUGAGGAUCACCCAUGUAGUCGGCUAGUAGGACCGGGAUGGCAUAAA [Solasoce]
RESULT: class 1

QUERY: // inclusive: apparent KD of MS2 coat protein at least 20 nM? input: AGUUUAGACACGGCCGCCACUCGUGACAGAUUUCGCAGUGGUCUACAUGAGGAUCACCCAUGUCUGAGGACCGGGUGUUGAGUUU [XTryp B #8]
RESULT: class 1

QUERY: // inclusive: apparent KD of MS2 coat protein at least 20 nM? input: GGAUAGGACACGGCCGCCACUAGCUAGGAUACUAGCAACAUUUCCUCACUUGAGGAACACCCAAGUAGGACCGGGUGUCCUAUCG
RESULT: class 1

QUERY: // inclusive: apparent KD of MS2 coat protein at least 20 nM? input: CCUUUGUAGCGAAGGAGCGCGUGACUUAGCUCAUGUAAACAUGAGGAUCACCCAUGUGACACGCAGGUAGGUCGCGCUAUGAAGG [Arg B Ex t3]
RESULT: class 1

QUERY: // inclusive: apparent KD of MS2 coat protein at least 20 nM? input: GACAGACGAGGAAGGAGCGACAUGAGGAUCACCCAUGUUGCGGGUUUAAGGUGAACUAAGUGUCAGGUAGGUCGCCUCGCUUUUA [Diatbeat]
RESULT: class 1

QUERY: // inclusive: apparent KD of MS2 coat protein at least 20 nM? input: UUUUAAAGCAUGGCGUAUCGGAAAACCGAUACCAGUACAGAAAUGUACCCUUGGCAGCGGCAUUUUACAUGAGGAUCACCCAUGU [Ex Theophylline A 2]
RESULT: class 0

New cases:
QUERY: // inclusive: apparent KD of MS2 coat protein at least 20 nM? input: ACAUGAGGAUCACCCAUGUGAAGGCACGAUACCAGCUGAUCCCGUGGCCCUUGGCAGCGUCCGGUGUGGUCCGGCGGAUGGGACG [xwxmullin]
RESULT: class 0

QUERY: // inclusive: apparent KD of MS2 coat protein at least 20 nM? input: GGAAAAUAUAGGGAUACCAGAUAUGGCGUUGACAUGAGGAUCACCCAUGUCUUAGCAGUGAUCCCUUGGCAGCCCACACCAUCCG [theeternabot_sameState_MS2_Theo_B_13]
RESULT: class 1

Taken from the supplement of paper PMC9170038.
